Entries and their pKd values follow.
RUN_DESCRIPTION: Binding affinity to Mycobacterium tuberculosis RpsA C-terminal domain (285 to 476 residues) assessed as dissociation constant by fluorescence quenching titration based analysis
pKd: −log10 of the molar value.
OBSERVED_PROPERTY: pKd

COMPOUND	ASSAY_RESULT
O=C(O)CSc1nc2nc[nH]c2c(=O)[nH]1	5.20
Cc1ccc(CNC(=O)CSc2nc3nc[nH]c3c(=O)[nH]2)cc1	5.12
Cc1cccc(CNC(=O)COc2cc(O)c3c(=O)cc(-c4ccccc4)oc3c2)c1	5.25
O=C(O)c1cnccn1	5.02
Cc1cccc(CNC(=O)CSc2nc3nc[nH]c3c(=O)[nH]2)c1	5.57
CCOC(=O)CSc1nc2nc[nH]c2c(=O)[nH]1	6.09
CC(Sc1nc(N)cc(N)n1)C(=O)O (stereo not drawn)	5.57
Cc1ccc(CNC(=O)COc2cc(O)c3c(=O)cc(-c4ccccc4)oc3c2)cc1	5.49

====

System: Mycobacterium tuberculosis
RUN_DESCRIPTION: Binding affinity to Mycobacterium tuberculosis RpsA C-terminal domain (285 to 476 residues) assessed as quenching rate constant by fluorescence quenching titration based analysis

CHEMICAL_SMILES	TARGET_OR_TEST_SYSTEM	Kq
Cc1ccc(CNC(=O)COc2cc(O)c3c(=O)cc(-c4ccccc4)oc3c2)cc1	Mycobacterium tuberculosis	6.45 10^12/M/s
CCOC(=O)CSc1nc2nc[nH]c2c(=O)[nH]1	Mycobacterium tuberculosis	3.37 10^12/M/s
Cc1cccc(CNC(=O)CSc2nc3nc[nH]c3c(=O)[nH]2)c1	Mycobacterium tuberculosis	3.75 10^12/M/s
Cc1ccc(CNC(=O)CSc2nc3nc[nH]c3c(=O)[nH]2)cc1	Mycobacterium tuberculosis	4.09 10^12/M/s
O=C(O)CSc1nc2nc[nH]c2c(=O)[nH]1	Mycobacterium tuberculosis	1.79 10^12/M/s
O=C(O)c1cnccn1	Mycobacterium tuberculosis	8.22 10^11/M/s
Cc1cccc(CNC(=O)COc2cc(O)c3c(=O)cc(-c4ccccc4)oc3c2)c1	Mycobacterium tuberculosis	1.94 10^12/M/s
